Values compiled from patent US10335409B2.

system: genotype 4a (ED43) stable HCV replicon in Huh-7-derived cells; assay: Stable subgenomic HCV replicon EC50, genotype 4a (Renilla luciferase); assay type: cell-based, hepatitis C virus; settings: Hepatitis C virus, 72 h, read-out: EC50 4A RLUC
readout kind: EC50 (nM)
The reply should contain only the number, in nM.

// worked examples, EC50 included
smiles input	target	readout kind	result
CC[C@@H]1[C@@H]2CN(C(=O)[C@H](C(C)(C)C)NC(=O)O[C@@H]3C[C@H]3CCCCCc3nc4ccc(OC)cc4nc3O2)[C@@H]1C(=O)N[C@]1(C(=O)NS(=O)(=O)C2(C)CC2)C[C@H]1CC(F)F	genotype 4a (ED43) stable HCV replicon in Huh-7-derived cells	EC50	12
CC[C@@H]1[C@@H]2CN(C(=O)[C@H](C3CCCCC3)NC(=O)O[C@@H]3C[C@H]3CCCCCc3nc4ccc(OC)cc4nc3O2)[C@@H]1C(=O)N[C@]1(C(=O)NS(=O)(=O)C2(C)CC2)C[C@H]1C(F)F	genotype 4a (ED43) stable HCV replicon in Huh-7-derived cells	EC50	8.1
CC[C@@H]1[C@@H]2CN(C(=O)[C@H](C(C)(C)C)NC(=O)O[C@@H]3C[C@H]3CCCCC(F)(F)c3nc4ccc(OC(F)F)cc4nc3O2)[C@@H]1C(=O)N[C@]1(C(=O)NS(=O)(=O)C2(C)CC2)C[C@H]1C(F)F	genotype 4a (ED43) stable HCV replicon in Huh-7-derived cells	EC50	9.2

Input COc1ccc2nc3c(nc2c1)O[C@H]1CN(C(=O)[C@H](C(C)(C)C)NC(=O)O[C@@H]2C[C@H]2CCCCC3)[C@H](C(=O)N[C@]2(C(=O)NS(=O)(=O)C3(C)CC3)C[C@H]2C(F)F)[C@@H]1CC(C)C . Output EC50: 31

====

Each entry below carries its reported EC50.
test system: genotype 1a (H77) stable HCV replicon in Huh-7-derived cells; experiment: Stable subgenomic HCV replicon EC50, genotype 1a (Renilla luciferase); assay type: cell-based, hepatitis C virus; conditions: stable replicon genotype 1a, 72 h, read-out: EC50 1A RLUC
The reply should contain only the number, in µM.

Input CC[C@@H]1[C@@H]2CN(C(=O)[C@H](C(C)(C)C)NC(=O)O[C@]3(C(F)(F)F)CCCC3CCCCCc3nc4ccc(OC)cc4nc3O2)[C@@H]1C(=O)N[C@]1(C(=O)NS(=O)(=O)C2(C)CC2)C[C@H]1C(F)F (stereo partly drawn) [Example 9] . Output EC50: 0.017

Input CC[C@@H]1[C@@H]2CN(C(=O)[C@H](C(C)(C)C)NC(=O)O[C@@H]3C[C@H]3CC/C=C/C(F)(F)c3nc4ccc(OC)cc4nc3O2)[C@@H]1C(=O)N[C@]1(C(=O)NS(=O)(=O)C2(C)CC2)C[C@H]1C(F)F [Example 89] . Output EC50: 0.006

Input CC[C@@H]1[C@@H]2CN(C(=O)[C@H](C(C)(C)C)NC(=O)O[C@@]3(C(F)(F)F)CCCC3CCCCCc3nc4ccc(OC)cc4nc3O2)[C@@H]1C(=O)N[C@]1(C(=O)NS(=O)(=O)C2(C)CC2)C[C@H]1C(F)F (stereo partly drawn) [Example 10] . Output EC50: 0.03

Input CC[C@@H]1[C@@H]2CN(C(=O)[C@H](C(C)(C)C)NC(=O)O[C@@]3(C(F)(F)F)CCC[C@H]3CCCCCc3nc4ccc(OC)cc4nc3O2)[C@@H]1C(=O)N[C@]1(C(=O)NS(=O)(=O)C2CC2)C[C@H]1C(F)F [Example 12] . Output EC50: 0.034

Input CC[C@@H]1[C@@H]2CN(C(=O)[C@H](C(C)(C)C)NC(=O)O[C@]3(C(F)(F)F)CCC[C@H]3CCCCCc3nc4ccc(OC)cc4nc3O2)[C@@H]1C(=O)N[C@]1(C(=O)NS(=O)(=O)C2CC2)C[C@H]1C(F)F [Example 11] . Output EC50: 0.028

Input COc1ccc2nc3c(nc2c1)O[C@H]1CN(C(=O)[C@H](C(C)(C)C)NC(=O)O[C@@H]2C[C@H]2CCCCC3)[C@H](C(=O)N[C@]2(C(=O)NS(=O)(=O)C3(C)CC3)C[C@H]2C(F)F)[C@@H]1C1CC1 [Example 31] . Output EC50: 0.04

====

tested on: genotype 1a (H77) wild type transient HCV replicon in Huh-7-derived cells; test: Transient-transfected HCV replicon EC50, genotype 1a wild type; format: cell-based, hepatitis C virus; conditions: Hepatitis C virus, 72 h, read-out: EC50 1A WT
Each entry below carries its reported pEC50.
Scale note: pEC50 = -log10(concentration in M).

// worked examples, pEC50 included
smiles input	readout kind	result
CC[C@@H]1C[C@]1(NC(=O)[C@@H]1[C@H](C)[C@@H]2CN1C(=O)[C@H](C(C)(C)C)NC(=O)O[C@@H]1C[C@H]1CCCCCc1nc3ccc(OC)cc3nc1O2)C(=O)NS(=O)(=O)C1(C)CC1	pEC50	8.39
COc1ccc2nc3c(nc2c1)O[C@H]1CN(C(=O)[C@H](C(C)(C)C)NC(=O)O[C@@H]2C[C@@H]4C[C@@H]4[C@H]2CCCCC3)[C@H](C(=O)N[C@]2(C(=O)NS(=O)(=O)C3(C)CC3)C[C@H]2CC(F)F)[C@@H]1C	pEC50	7.92
CCC[C@@H]1[C@@H]2CN(C(=O)[C@H](C(C)(C)C)NC(=O)O[C@@H]3C[C@H]3CCCCC(F)(F)c3nc4ccc(OC)cc4nc3O2)[C@@H]1C(=O)N[C@]1(C(=O)NS(=O)(=O)C2(C)CC2)C[C@H]1C(F)F	pEC50	8.03

Here is another compound to look at.
Input COc1ccc2nc3c(nc2c1)O[C@H]1CN(C(=O)[C@H](C(C)(C)C)NC(=O)O[C@@H]2C[C@@H]4C[C@@H]4[C@H]2CCCCC3)[C@H](C(=O)N[C@]2(C(=O)NS(=O)(=O)C3CC3)C[C@H]2CC(F)F)[C@@H]1C . Output pEC50: 7.92

====

tested on: genotype 4a (ED43) stable HCV replicon in Huh-7-derived cells; experiment: Stable subgenomic HCV replicon EC50, genotype 4a (Renilla luciferase); assay type: cell-based, hepatitis C virus; settings: Hepatitis C virus, 72 h, read-out: EC50 4A RLUC
EC50 vs 6 nM: less than gives y; not less than gives n.

Observe how each entry below is paired with its result.
compound	qualitative label
COc1ccc2nc3c(nc2c1)O[C@H]1CN(C(=O)[C@H](C(C)(C)C)NC(=O)O[C@]2(C)C[C@H]2CCCCC3)[C@H](C(=O)N[C@]2(C(=O)NS(=O)(=O)C3(C)CC3)C[C@H]2C(F)F)[C@@H]1C [Example 44]	y
CC[C@@H]1[C@@H]2CN(C(=O)[C@H](C(C)(C)C)NC(=O)O[C@@H]3C[C@H]3CCCCC(F)(F)c3nc4ccc(OC)cc4nc3O2)[C@@H]1C(=O)NC1(C(=O)NS(=O)(=O)C2CC2)C[C@H]1C(F)F (some centres unmarked) [Example 94]	y
COc1ccc2nc3c(nc2c1)O[C@H]1CN(C(=O)[C@H](C(C)(C)C)NC(=O)O[C@@H]2C[C@H]2CCCCC3)[C@H](C(=O)N[C@]2(C(=O)NS(=O)(=O)C3(C)CC3)C[C@H]2C(F)F)[C@@H]1Cc1ccccc1 [Example 32]	n
CC[C@@H]1[C@@H]2CN(C(=O)[C@H](C(C)(C)C)NC(=O)O[C@@H]3C[C@H]3CCCCC(F)(F)c3nc4ccc(OC)cc4nc3O2)[C@@H]1C(=O)N[C@]1(C(=O)NS(=O)(=O)C2CC2)C[C@H]1CC [Example 34]	n
CC[C@@H]1[C@@H]2CN(C(=O)[C@H](C(C)(C)C)NC(=O)O[C@@H]3[C@H]4CC[C@H](C4)[C@H]3CCCCCc3nc4ccc(OC)cc4nc3O2)[C@@H]1C(=O)N[C@]1(C(=O)NS(=O)(=O)C2(C)CC2)C[C@H]1C(F)F [Example 37]	n
CCOc1ccc2nc3c(nc2c1)O[C@H]1CN(C(=O)[C@H](C(C)(C)C)NC(=O)O[C@@H]2C[C@H]2CCCCC3)[C@H](C(=O)N[C@]2(C(=O)NS(=O)(=O)C3(C)CC3)C[C@H]2C(F)F)[C@@H]1CC [Example 69]	y
COc1ccc2nc3c(nc2c1)O[C@H]1CN(C(=O)[C@H](C(C)(C)C)NC(=O)O[C@@]2(C)C[C@@H]2CCCCC3)[C@H](C(=O)N[C@]2(C(=O)NS(=O)(=O)C3(C)CC3)C[C@H]2C(F)F)[C@@H]1C [Example 45]	n
COc1ccc2nc3c(nc2c1)O[C@H]1CN(C(=O)[C@H](C(C)(C)C)NC(=O)O[C@@H]2C[C@H]2CCCCC3)[C@H](C(=O)N[C@]2(C(=O)NS(=O)(=O)C3(C)CC3)C[C@H]2C(F)F)[C@@H]1CC#N [Example 50]	n
C=C[C@@H]1C[C@]1(NC(=O)[C@@H]1[C@H](CC)[C@@H]2CN1C(=O)[C@H](C(C)(C)C)NC(=O)O[C@@H]1C[C@H]1CCCCCc1nc3ccc(OC)cc3nc1O2)C(=O)NS(=O)(=O)C1CC1 [Example 91]	y
COc1ccc2nc3c(nc2c1)O[C@H]1CN(C(=O)[C@H](C(C)(C)C)NC(=O)O[C@@H]2C[C@@H]4C[C@@H]4[C@H]2CCCCC3)[C@H](C(=O)N[C@]2(C(=O)NS(=O)(=O)C3(C)CC3)C[C@H]2CC(F)F)[C@@H]1C [Example 58]	n

Here's an entry: CC[C@@H]1[C@@H]2CN(C(=O)[C@H](C(C)(C)C)NC(=O)O[C@@H]3C[C@@H]4C[C@@H]4[C@H]3CCCCC(F)(F)c3nc4ccc(OC)cc4nc3O2)[C@@H]1C(=O)N[C@]1(C(=O)NS(=O)(=O)C2(C)CC2)C[C@H]1C(F)F [Example 61] . Is its EC50 below 6 nM?
n

Here's an entry: C=C[C@@H]1C[C@]1(NC(=O)[C@@H]1[C@H](CC)[C@@H]2CN1C(=O)[C@H](C(C)(C)C)NC(=O)O[C@@H]1C[C@H]1CCCCC(F)(F)c1nc3ccc(OC)cc3nc1O2)C(=O)NS(=O)(=O)C1CC1 [Example 92] . Is its EC50 below 6 nM?
y

Here's an entry: CCC[C@@H]1[C@@H]2CN(C(=O)[C@H](C(C)(C)C)NC(=O)O[C@@H]3C[C@H]3CCCCC(F)(F)c3nc4ccc(OC)cc4nc3O2)[C@@H]1C(=O)N[C@]1(C(=O)NS(=O)(=O)C2CC2)C[C@H]1C(F)F [Example 60] . Is its EC50 below 6 nM?
y

Here's an entry: CC[C@@H]1[C@@H]2CN(C(=O)[C@H](C(C)(C)C)NC(=O)O[C@@H]3C[C@H]3CCCCCc3nc4ccc(OC)cc4nc3O2)[C@@H]1C(=O)N[C@]1(C(=O)NS(=O)(=O)C2(C)CC2)C[C@H]1CC [Example 4] . Is its EC50 below 6 nM?
n

Here's an entry: CC[C@@H]1[C@@H]2CN(C(=O)[C@H](C3CCCC3)NC(=O)O[C@@H]3C[C@H]3CCCCCc3nc4ccc(OC)cc4nc3O2)[C@@H]1C(=O)N[C@]1(C(=O)NS(=O)(=O)C2CC2)C[C@H]1C(F)F [Example 15] . Is its EC50 below 6 nM?
n
